# credit: ChEMBL document CHEMBL2073750

target: ATP-dependent translocase ABCB1 (Homo sapiens, UniProt P08183); test: TP_TRANSPORTER: inhibition of calcein-AM efflux in MDR1-expressing MDCK cells; assay type: functional, cell-based; settings: read-out: IC50
Sequence (P08183 whole entry): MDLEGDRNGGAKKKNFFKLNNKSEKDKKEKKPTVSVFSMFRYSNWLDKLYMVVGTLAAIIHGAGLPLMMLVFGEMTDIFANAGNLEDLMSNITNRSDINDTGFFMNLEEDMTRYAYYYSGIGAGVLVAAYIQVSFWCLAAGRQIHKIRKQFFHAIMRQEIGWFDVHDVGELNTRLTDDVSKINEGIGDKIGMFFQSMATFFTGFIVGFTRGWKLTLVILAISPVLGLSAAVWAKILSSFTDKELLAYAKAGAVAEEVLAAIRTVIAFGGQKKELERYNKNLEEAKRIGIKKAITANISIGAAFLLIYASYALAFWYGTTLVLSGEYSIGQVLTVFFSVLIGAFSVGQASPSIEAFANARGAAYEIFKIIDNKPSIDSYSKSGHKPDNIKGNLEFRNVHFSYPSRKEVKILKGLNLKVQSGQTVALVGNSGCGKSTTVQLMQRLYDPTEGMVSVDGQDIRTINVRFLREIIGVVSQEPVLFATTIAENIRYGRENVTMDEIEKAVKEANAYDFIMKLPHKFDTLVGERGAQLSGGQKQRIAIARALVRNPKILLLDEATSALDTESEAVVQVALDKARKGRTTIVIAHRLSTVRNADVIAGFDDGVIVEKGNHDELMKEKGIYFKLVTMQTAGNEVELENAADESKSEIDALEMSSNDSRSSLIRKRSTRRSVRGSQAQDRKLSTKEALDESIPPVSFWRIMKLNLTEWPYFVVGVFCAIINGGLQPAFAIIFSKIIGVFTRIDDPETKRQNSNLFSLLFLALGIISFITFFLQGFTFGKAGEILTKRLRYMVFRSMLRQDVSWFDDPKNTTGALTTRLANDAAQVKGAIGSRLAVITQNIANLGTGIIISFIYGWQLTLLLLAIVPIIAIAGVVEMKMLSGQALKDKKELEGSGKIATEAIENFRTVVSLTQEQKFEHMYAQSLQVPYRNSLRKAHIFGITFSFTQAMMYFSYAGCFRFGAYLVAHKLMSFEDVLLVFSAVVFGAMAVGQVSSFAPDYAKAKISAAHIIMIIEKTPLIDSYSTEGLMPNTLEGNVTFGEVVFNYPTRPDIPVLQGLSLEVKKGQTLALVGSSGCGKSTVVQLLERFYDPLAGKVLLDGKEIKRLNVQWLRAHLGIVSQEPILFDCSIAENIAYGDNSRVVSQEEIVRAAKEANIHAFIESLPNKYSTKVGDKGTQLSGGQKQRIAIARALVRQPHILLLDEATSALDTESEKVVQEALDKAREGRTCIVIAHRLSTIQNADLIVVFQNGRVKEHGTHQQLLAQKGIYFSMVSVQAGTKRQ
ASSAY ENDPOINT: IC50 (µM)
Form entry: value (µM) — number only.

Incoming: Can you look up the measured IC50 of `CC(C)c1c(C(=O)Nc2ccccc2)c(-c2ccccc2)c(-c2ccc(F)cc2)n1CC[C@@H]1C[C@@H](O)CC(=O)O1` for me?
Outgoing: 14

###

target: Solute carrier organic anion transporter family member 1B1 (Homo sapiens, UniProt Q9Y6L6); assay: TP_TRANSPORTER: inhibition of estradiol-17beta-glucuronide uptake(estradiol-17beta-glucuronide:0.02uM) in OATP1B1-expressing HEK293 cells; type: functional, cell-based; settings: read-out: IC50
Sequence (Q9Y6L6 whole entry): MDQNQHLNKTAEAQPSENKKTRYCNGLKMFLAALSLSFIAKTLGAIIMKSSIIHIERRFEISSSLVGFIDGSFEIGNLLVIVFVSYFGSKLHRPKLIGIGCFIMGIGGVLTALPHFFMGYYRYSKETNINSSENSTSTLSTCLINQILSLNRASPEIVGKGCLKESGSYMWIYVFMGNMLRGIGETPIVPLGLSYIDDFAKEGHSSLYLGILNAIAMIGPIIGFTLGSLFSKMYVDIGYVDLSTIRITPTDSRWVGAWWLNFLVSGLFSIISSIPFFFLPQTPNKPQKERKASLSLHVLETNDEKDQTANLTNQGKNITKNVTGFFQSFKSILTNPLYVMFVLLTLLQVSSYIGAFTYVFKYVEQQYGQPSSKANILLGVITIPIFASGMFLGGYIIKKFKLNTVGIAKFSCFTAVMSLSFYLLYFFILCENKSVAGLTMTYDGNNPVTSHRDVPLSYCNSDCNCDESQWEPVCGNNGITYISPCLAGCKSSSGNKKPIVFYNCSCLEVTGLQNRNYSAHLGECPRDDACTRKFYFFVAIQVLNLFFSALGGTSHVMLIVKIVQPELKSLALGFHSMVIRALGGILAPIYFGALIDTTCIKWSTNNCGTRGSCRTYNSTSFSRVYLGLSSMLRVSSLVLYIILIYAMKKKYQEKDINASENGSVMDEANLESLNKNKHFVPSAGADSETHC
ASSAY ENDPOINT: log10 IC50 (log10 of the value in µM)
Lab note - IC50 converted to log10 from values in µM.

LINE NOTATION	READING
CC[C@H](C)C(=O)O[C@H]1C[C@@H](C)C=C2C=C[C@H](C)[C@H](CC[C@@H](O)C[C@@H](O)CC(=O)O)[C@H]21	0.60

Incoming: Can you look up the measured log10 IC50 of `CO[C@H]1/C=C/O[C@@]2(C)Oc3c(C)c(O)c4c(O)c(cc(O)c4c3C2=O)NC(=O)/C(C)=C\C=C\[C@H](C)[C@H](O)[C@@H](C)[C@@H](O)[C@@H](C)[C@H](OC(C)=O)[C@@H]1C` for me?
Outgoing: -0.64

Incoming: Can you look up the measured log10 IC50 of `CC(C)c1c(C(=O)Nc2ccccc2)c(-c2ccccc2)c(-c2ccc(F)cc2)n1CC[C@@H]1C[C@@H](O)CC(=O)O1` for me?
Outgoing: 0.41

Incoming: Can you look up the measured log10 IC50 of `CC[C@H](C)C(=O)O[C@H]1C[C@@H](C)C=C2C=C[C@H](C)[C@H](CC[C@@H]3C[C@@H](O)CC(=O)O3)[C@H]21` for me?
Outgoing: 1.45

Incoming: Can you look up the measured log10 IC50 of `CCC(C)(C)C(=O)O[C@H]1C[C@@H](C)C=C2C=C[C@H](C)[C@H](CC[C@@H](O)C[C@@H](O)CC(=O)O)[C@H]21` for me?
Outgoing: 0.56
